Form field: IC50 (one value per entry).
tested target: USP30 (Homo sapiens (Human), UniProt Q70CQ3)
Sequence (Q70CQ3 57-517): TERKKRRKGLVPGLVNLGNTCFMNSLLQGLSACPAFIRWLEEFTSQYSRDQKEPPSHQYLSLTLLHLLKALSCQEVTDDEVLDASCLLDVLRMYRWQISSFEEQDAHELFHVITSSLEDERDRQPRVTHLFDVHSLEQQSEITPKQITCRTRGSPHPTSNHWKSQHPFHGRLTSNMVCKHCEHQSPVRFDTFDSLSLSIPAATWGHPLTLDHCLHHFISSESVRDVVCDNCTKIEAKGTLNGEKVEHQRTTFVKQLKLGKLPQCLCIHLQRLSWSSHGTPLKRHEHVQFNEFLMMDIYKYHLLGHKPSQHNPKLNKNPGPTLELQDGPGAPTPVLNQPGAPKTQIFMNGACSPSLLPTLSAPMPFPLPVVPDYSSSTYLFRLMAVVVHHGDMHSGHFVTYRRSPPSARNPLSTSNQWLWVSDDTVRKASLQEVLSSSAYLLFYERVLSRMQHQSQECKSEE
experiment description: USP30 biochemical IC50 assay (fluorescence polarisation)
particulars: USP30 CD (57-517); 30 min preincubation at room temp; TAMRA-peptide-ubiquitin substrate 50 nM; read after 2-hour incubation; read-out: IC50 range
Description: A typical 8-point dilution series would be 100, 30, 10, 3, 1, 0.3, 0.1, 0.03 μM final. […] Either 1 μl of 50% DMSO or diluted compound was added to the plate. […] Reactions were initiated by the addition of 50 nM of TAMRA labelled peptide linked to ubiquitin via an iso-peptide bond as fluorescence polarisation substrate. Reactions were read immediately after addition of substrate and following a 2-hour incubation at room temperature. […]

Field: example entries. Status: answers known.
* Cn1cc(-c2ccc(S(=O)(=O)NC3CCN(C#N)C3)cc2)cn1 (stereo not shown) | 100 to 1000 nM
* N#CN1CCC(S(=O)(=O)N2CCN(c3ncccn3)CC2)C1 (stereo not shown) | 1000 to 10000 nM
* N#CN1CCC(S(=O)(=O)N2CCN(c3ccc(F)cc3)CC2)C1 (stereo not shown) | 10000 to 100000 nM
* N#CN1CCC(NS(=O)(=O)c2ccc(N3CCCCC3)cc2)C1 (stereo not shown) | 100 to 1000 nM
* CN([C@@H]1CCN(C#N)C1)S(=O)(=O)c1ccc(-c2cccnc2)cc1 | 100 to 1000 nM
* N#CN1CCC(NS(=O)(=O)c2ccc(OCc3ccccc3)cc2)C1 (stereo not shown) | 100 to 1000 nM
* N#CN1CCC(NS(=O)(=O)c2ccc(Oc3ccc(C(F)(F)F)cn3)cc2)C1 (stereo not shown) | 100 to 1000 nM
* N#CN1CC[C@H](NS(=O)(=O)c2ccc(-c3ccccc3)cc2)C1 | 100 to 1000 nM

// switching to the query compound
Look at this compound and give its reported IC50. N#CN1CCC(S(=O)(=O)N2CC(Oc3ccccc3)C2)C1 (stereo not shown) 10000 to 100000 nM
